Ref: patent US6172079A

Tested on: GABAA receptor complex (TBPS binding)
method.notes: TBPS Binding Assay
Design: species or system Wistar rats
run.parameters: [35S]TBPS 0.4 nM, GABA 1 μM, rat cerebral cortex membrane, +% inverse agonistic, 0% antagonistic
measured.attribute: TBPS binding Variation Rate (%)

Examples with answers:
{"columns": ["molecule", "TBPS binding Variation Rate / %"],
 "data": [
  ["CCc1nc(-c2cc3c(-c4cccnc4)nccc3[nH]c2=O)no1 [Example 106]", 20],
  ["COc1ccc(-c2nccc3[nH]c(=O)c(-c4noc(C)n4)cc23)cc1 [Example 11]", 21],
  ["CCc1nc(-c2cc3c(-c4ccsc4)nccc3[nH]c2=O)no1 [Example 105]", 25]
]}

A: CCc1noc(-c2cc3c(-c4cccc(C)c4)nccc3[nH]c2=O)n1 [Example 206]
B: CCCc1nc(-c2cc3c(C(C)C)nccc3[nH]c2=O)no1 [Example 36]
## Task Field: lower TBPS binding Variation Rate | Options: A / B Could you answer with the label of the item you picked?
## Result A
(A: -13%, B: 15%)
